# Target desc: UniProt:P9WGR1
# Sequence (P9WGR1 whole entry): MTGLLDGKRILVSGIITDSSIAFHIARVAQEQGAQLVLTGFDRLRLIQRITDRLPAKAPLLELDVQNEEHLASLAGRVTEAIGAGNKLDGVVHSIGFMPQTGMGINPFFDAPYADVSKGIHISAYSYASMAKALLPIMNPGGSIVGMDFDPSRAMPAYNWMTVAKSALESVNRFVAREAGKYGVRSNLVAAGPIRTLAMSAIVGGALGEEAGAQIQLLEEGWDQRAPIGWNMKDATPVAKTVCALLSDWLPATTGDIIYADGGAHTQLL
pIC50: −log10 of the molar value.
Measurement kind: pIC50

INSERT INTO measurements (structure_smiles_string, measured_number) VALUES
  ('NC(=O)c1cc([C@@H]2O[C@H](COP(=O)(O)OP(=O)(O)OC[C@H]3O[C@@H](n4cnc5c(N)ncnc54)[C@H](O)[C@@H]3O)[C@@H](O)[C@H]2O)ccc1Oc1ccccc1', 4.57);

Data origin: ChEMBL document CHEMBL1140643
